Molecular target: FGFR2 (Homo sapiens, UniProt P21802)
Construct: biochemical assays using purified intracellular domains of the respective isoforms; purchased Carna Bioscience 08-134
Sequence (P21802 399-821 limits assumed): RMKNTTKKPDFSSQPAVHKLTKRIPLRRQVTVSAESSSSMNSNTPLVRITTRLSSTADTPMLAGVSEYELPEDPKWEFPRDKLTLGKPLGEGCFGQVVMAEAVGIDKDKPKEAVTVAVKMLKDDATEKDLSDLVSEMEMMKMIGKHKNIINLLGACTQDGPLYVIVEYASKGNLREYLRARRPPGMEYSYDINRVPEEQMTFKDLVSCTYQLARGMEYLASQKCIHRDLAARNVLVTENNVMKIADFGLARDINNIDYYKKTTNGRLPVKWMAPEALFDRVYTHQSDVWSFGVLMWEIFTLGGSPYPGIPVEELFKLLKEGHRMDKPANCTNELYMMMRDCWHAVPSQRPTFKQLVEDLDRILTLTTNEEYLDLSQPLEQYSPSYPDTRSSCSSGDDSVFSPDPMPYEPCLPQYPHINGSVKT
Assay: FGFR wild type enzyme assay (HTRF KinEASE-TK)
Assay type: biochemical
Conditions: Table 3; ATP 2 uM; read-out: FGFR2 Enz
readout: log10 of IC50 (log10 of the value in pM)
The base-10 logarithm of IC50, taken with IC50 in pM, is what appears here.

Record excerpt, results attached:
# compound, system-name, log10 of IC50
measured = [
    ("Cc1c(-c2cc(O[C@H](C)c3ccc(F)cn3)c3c(C#N)cnn3c2)cnn1[C@H]1CCC[C@H](O)C1", "FGFR2 (Homo sapiens, UniProt P21802)", 2.60),
    ("C[C@@H](Oc1cc(-c2cnn(CCO)c2N)cn2ncc(C#N)c12)c1ccc(F)cn1", "FGFR2 (Homo sapiens, UniProt P21802)", 3.00),
    ("Cc1c(-c2cc(O[C@H](C)c3ccccn3)c3c(C#N)cnn3c2)cnn1C1CCN(C)CC1", "FGFR2 (Homo sapiens, UniProt P21802)", 2.48),
    ("C[C@H](O)C(=O)N1CCC(n2cc(-c3cc(O[C@H](C)c4ccc(F)cn4)c4c(C#N)cnn4c3)cn2)CC1", "FGFR2 (Homo sapiens, UniProt P21802)", 2.18),
    ("CN=S1(=O)CCC(n2cc(-c3cc(O[C@H](C)c4ccc(F)cn4)c4c(C#N)cnn4c3)cn2)CC1 (some centres unmarked)", "FGFR2 (Homo sapiens, UniProt P21802)", 2.18),
    ("Cc1c(-c2cc(O[C@H](C)c3ccc(F)cn3)c3c(C#N)cnn3c2)cnn1[C@H]1CCCNC1", "FGFR2 (Homo sapiens, UniProt P21802)", 2.65),
]

Which log10 of IC50 is listed for Cc1c(-c2cc(O[C@H](C)c3ccc(F)cn3)c3c(C#N)cnn3c2)cnn1C1CCN(C[C@H](O)CO)CC1 ? 2.70

If you can, please state the reported log10 of IC50 value of Cc1c(-c2cc(O[C@H](CO)c3ccc(F)cn3)c3c(C#N)cnn3c2)cnn1[C@H]1CC[C@H](O)CC1 . 3.48

log10 of IC50 for Cc1c(-c2cc(O[C@H](C)c3ccc(F)cn3)c3c(C#N)cnn3c2)cnn1[C@H]1CCCN(C[C@H](O)CO)C1 ? 2.70

Record request: log10 of IC50 value, item C[C@@H](Oc1cc(-c2cnn(C)c2N)cn2ncc(C#N)c12)c1ccccn1 3.00

Need log10 of IC50 of Cc1c(-c2cc(O[C@H](C)c3ncccc3F)c3c(C#N)cnn3c2)cnn1[C@H]1CCCNC1 , thanks. 2.48

Return reported log10 of IC50; argument: Cc1c(-c2cc(O[C@H](C)c3ccc(F)cn3)c3c(C#N)cnn3c2)cnn1[C@H]1CCCN(C(=O)[C@H](C)O)C1 2.70

Field request: log10 of IC50 | item: Cc1c(-c2cc(O[C@H](C)c3ccc(F)cn3)c3c(C#N)cnn3c2)cnn1C1CCS(=O)(=O)CC1 3.00

Tell me the measured log10 of IC50 of Cc1c(-c2cc(O[C@H](C)c3ccc(F)cn3)c3c(C#N)cnn3c2)cnn1C1CCN(C(=O)[C@H](C)O)CC1 , please. 2.70

Consider the compound shown here: C[C@@H](Oc1cc(-c2cnn([C@H]3CC[C@H](O)CC3)c2)cn2ncc(C#N)c12)c1ccc(F)cn1 What is its recorded log10 of IC50? 2.30

Could you tell me which log10 of IC50 is on file for C[C@@H](Oc1cc(-c2ccc(N3CC[C@H](O)[C@H](O)C3)nc2)cn2ncc(C#N)c12)c1ccc(F)cn1 ? 2.70

Query (compound): C[C@@H](Oc1cc(-c2ccc(N3CC[C@@H](O)[C@@H](O)C3)nc2)cn2ncc(C#N)c12)c1ccc(F)cn1 ; field requested: log10 of IC50 2.48

Which value of log10 of IC50 has been reported for Cc1c(-c2cc(O[C@H](C)c3ncccc3F)c3c(C#N)cnn3c2)cnn1C1CCNCC1 in the records? 2.48

So what does the record say about log10 of IC50 for Cc1c(-c2cc(O[C@H](C)c3ccc(F)cn3)c3c(C#N)cnn3c2)cnn1C1CCN(C(=O)[C@@H](N)C(C)C)CC1 ? 2.70

// returns reported log10 of IC50 for input Cc1c(-c2cc(OC(C)c3ccc(F)cn3)c3c(C#N)cnn3c2)cnn1[C@H]1CC[C@H](O)CC1 (some centres unmarked) 3.00

Please look up its log10 of IC50: C[C@@H](Oc1cc(-c2cnn([C@H]3CCCNC3)c2N)cn2ncc(C#N)c12)c1ccc(F)cn1 2.48

Recorded log10 of IC50 for Cc1c(-c2cc(O[C@H](C)c3ccc(F)cn3)c3c(C#N)cnn3c2)cnn1[C@H]1CCCN(C(CO)CO)C1 , please? 2.60

What value of log10 of IC50 has been reported for the following compound? Cc1c(-c2cc(O[C@H](C)c3ccc(F)cn3)c3c(C#N)cnn3c2)nnn1[C@H]1CC[C@H](O)CC1 2.70

// query log10 of IC50 value for entry C[C@@H](Oc1cc(-c2ccc(N3CCC(O)CC3)nc2)cn2ncc(C#N)c12)c1ccc(F)cn1 2.30

* * *

Molecular target: FGFR2 (Homo sapiens, UniProt P21802)
Construct: biochemical assays using purified intracellular domains of the respective isoforms; purchased Carna Bioscience 08-134
Assay: FGFR wild type enzyme assay (HTRF KinEASE-TK)
Assay type: biochemical
Conditions: Table 3; ATP 2 uM; read-out: FGFR2 Enz
Please note: IC50 exactly at 0.4 nM is Criterion not met. Only values below 0.4 nM get Criterion met.

Worked set:
# line-notation, system-name, classification
data = [
    ("C[C@H](Oc1cc(-c2cnn(C3CCNCC3)c2)cn2ncc(C#N)c12)c1ccccn1", "FGFR2 (Homo sapiens, UniProt P21802)", "Criterion not met"),
    ("Cc1c(-c2cc(O[C@H](C)c3ccc(F)cn3)c3c(C#N)cnn3c2)cnn1C", "FGFR2 (Homo sapiens, UniProt P21802)", "Criterion not met"),
    ("C[C@@H](Oc1cc(-c2ccc(N3CC[C@@H](O)[C@H](O)C3)nc2)cn2ncc(C#N)c12)c1ccc(F)cn1", "FGFR2 (Homo sapiens, UniProt P21802)", "Criterion met"),
    ("Cc1c(-c2cc(O[C@H](C)c3ccccn3)c3c(C#N)cnn3c2)cnn1C1CCNCC1", "FGFR2 (Homo sapiens, UniProt P21802)", "Criterion met"),
    ("Cc1nn(C[C@H](O)CO)cc1-c1cc(O[C@H](C)c2ccc(F)cn2)c2c(C#N)cnn2c1", "FGFR2 (Homo sapiens, UniProt P21802)", "Criterion not met"),
]

Switching to the query record.
Is 0.4 nM strictly greater than the compound's reported IC50? compound: C[C@@H](Oc1cc(-c2cnn(C3CCN(C#N)CC3)c2N)cn2ncc(C#N)c12)c1ccc(F)cn1 Criterion met

* * *

Collected IC50 values appear next to each entry.
Molecular target: FGFR2 (Homo sapiens)
Construct: biochemical assays using purified intracellular domains of the respective isoforms; purchased Carna Bioscience 08-134
Assay: FGFR wild type enzyme assay (HTRF KinEASE-TK)
Format: biochemical
Conditions: compound table after the examples; ATP 2 uM; read-out: Enz FGFR2
A number alone suffices; assume nM.

// below: answered molecules
# line-notation, readout, display-unit, numeric-value
rows = [
    ("Cc1c(-c2cc(O[C@H](C)c3ccc(F)cn3)c3c(C#N)cnn3c2)cnn1C1CCN(C[C@H](O)CO)CC1", "IC50", "nM", 0.5),
    ("Cc1nn(C[C@H](O)CO)cc1-c1cc(O[C@H](C)c2ccc(F)cn2)c2c(C#N)cnn2c1", "IC50", "nM", 3),
    ("CC(=O)N[C@H]1CC[C@H](n2ncc(-c3cc(O[C@H](C)c4ccc(F)cn4)c4c(C#N)cnn4c3)c2C)CC1", "IC50", "nM", 0.4),
    ("Cc1c(-c2cc(O[C@H](C)c3ccccn3)c3c(C#N)cnn3c2)cnn1C1CCNCC1", "IC50", "nM", 0.25),
    ("C[C@@H](Oc1cc(-c2cnn(C)c2N)cn2ncc(C#N)c12)c1ccc(F)cn1", "IC50", "nM", 1),
    ("Cc1c(-c2cc(O[C@H](CO)c3ccc(F)cn3)c3c(C#N)cnn3c2)cnn1[C@H]1CC[C@H](O)CC1", "IC50", "nM", 3),
]

We now examine a further molecule.
For FGFR2 (Homo sapiens), provide IC50 of Cc1nn(C2CCN(C)CC2)c(C)c1-c1cc(O[C@H](C)c2ccccn2)c2c(C#N)cnn2c1 please. 1

* * *

Biological target: FGFR2 N549H (Homo sapiens, UniProt P21802, N549H)
Construct: biochemical assays using purified intracellular domains of the respective isoforms; purchased Carna Bioscience 08-532
Sequence (P21802 399-821 N549H limits assumed): as the sequence (P21802 399-821 limits assumed) above, with N151H counted along it
Assay: FGFR mutant enzyme assay (HTRF KinEASE-TK)
Type: biochemical
Settings: ATP 0.9 uM
readout: IC50 (nM)
Answer with a number only, understood to be in nM.

# line-notation, display-unit, IC50
records = [
    ("Cc1c(-c2cc(O[C@@H](c3ccc(F)cn3)C(F)(F)F)c3c(C#N)cnn3c2)cnn1[C@H]1CC[C@H](O)CC1", "nM", 1),
]

What does the record list as IC50 for Cc1c(-c2cc(O[C@H](C)c3ccc(F)cn3)c3c(C#N)cnn3c2)cnn1[C@H]1CC[C@@](C)(O)CC1 ? 0.6

# get_value(readout='IC50', item= Cc1c(-c2cc(O[C@H](C)c3ccc(F)cn3)c3c(C#N)cnn3c2)cnn1[C@H]1CCCN(C(CO)CO)C1 ) 0.3

What IC50 value was documented for this compound, C[C@@H](Oc1cc(-c2nnn(C)c2N)cn2ncc(C#N)c12)c1ccc(F)cn1 ? 3

// returns reported IC50 for input Cc1c(-c2cc(O[C@H](C)c3ccc(F)cn3)c3c(C#N)cnn3c2)cnn1[C@@H]1CCC[C@H](O)C1 0.45

Need IC50 of Cc1c(-c2cc(O[C@H](C)c3ncccc3F)c3c(C#N)cnn3c2)cnn1C1CCNCC1 , thanks. 0.5

Which IC50 value belongs to C[C@@H](Oc1cc(-c2ccc(N3CC[C@H](O)[C@@H](O)C3)nc2)cn2ncc(C#N)c12)c1ccc(F)cn1 ? 0.3

Give its IC50 value. Item: Cc1c(-c2cc(O[C@@H](C)c3ccc(F)cn3)c3c(C#N)cnn3c2)cnn1[C@H]1CC[C@@H](O)CC1 6

Fill in the blank: the reported IC50 of Cc1c(-c2cc(O[C@H](C)c3ccc(F)cn3)c3c(C#N)cnn3c2)cnn1[C@H]1CC[C@H](O)CC1 is ____. 0.4
